Molecular target: Human recombinant ALDH1A3 (Homo sapiens)
Sequence (P47895 1-512): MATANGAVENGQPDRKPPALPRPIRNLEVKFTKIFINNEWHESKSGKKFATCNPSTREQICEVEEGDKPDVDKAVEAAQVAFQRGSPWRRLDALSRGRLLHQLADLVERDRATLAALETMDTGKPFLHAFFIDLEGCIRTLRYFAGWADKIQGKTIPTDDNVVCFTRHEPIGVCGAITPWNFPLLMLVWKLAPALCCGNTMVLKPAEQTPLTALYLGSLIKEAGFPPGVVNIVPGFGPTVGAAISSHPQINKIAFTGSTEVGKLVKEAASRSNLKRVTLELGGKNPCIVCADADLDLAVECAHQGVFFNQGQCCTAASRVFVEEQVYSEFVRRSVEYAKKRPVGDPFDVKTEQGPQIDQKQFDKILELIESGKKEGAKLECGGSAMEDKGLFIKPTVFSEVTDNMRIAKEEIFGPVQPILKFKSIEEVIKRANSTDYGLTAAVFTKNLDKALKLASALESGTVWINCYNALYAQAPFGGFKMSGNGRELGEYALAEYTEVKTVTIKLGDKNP
Experiment: Enzymatic assay with human recombinant ALDH (NADH fluorescence), IC50
Details: substrate Hexanal, NAD+, 37° C.
MEASURED PARAMETER: IC50 (µM)
Expressed in µM, but write only the number.

Here is how some compounds turned out for IC50.
1. CSC(=O)C#CC(C)(C)N(C)CCOCc1ccc(C)c(C)c1 | 4.8
2. CSC(=O)C#CC(C)(C)N(C)C [DIMATE, reference compound] | 20

Consider now this further compound.
Q) Could you tell me which IC50 is on file for "CSC(=O)C#CC(C)(C)N(C)CCOCc1ccccc1" ?
A) 3.4

====

# IC50 listing for each entry below
target: Human recombinant ALDH2 (Homo sapiens, UniProt P05091); assay: Enzymatic assay with human recombinant ALDH (NADH fluorescence), IC50; conditions: substrate Hexanal, NAD+, 37° C.
Sequence (P05091 18-517): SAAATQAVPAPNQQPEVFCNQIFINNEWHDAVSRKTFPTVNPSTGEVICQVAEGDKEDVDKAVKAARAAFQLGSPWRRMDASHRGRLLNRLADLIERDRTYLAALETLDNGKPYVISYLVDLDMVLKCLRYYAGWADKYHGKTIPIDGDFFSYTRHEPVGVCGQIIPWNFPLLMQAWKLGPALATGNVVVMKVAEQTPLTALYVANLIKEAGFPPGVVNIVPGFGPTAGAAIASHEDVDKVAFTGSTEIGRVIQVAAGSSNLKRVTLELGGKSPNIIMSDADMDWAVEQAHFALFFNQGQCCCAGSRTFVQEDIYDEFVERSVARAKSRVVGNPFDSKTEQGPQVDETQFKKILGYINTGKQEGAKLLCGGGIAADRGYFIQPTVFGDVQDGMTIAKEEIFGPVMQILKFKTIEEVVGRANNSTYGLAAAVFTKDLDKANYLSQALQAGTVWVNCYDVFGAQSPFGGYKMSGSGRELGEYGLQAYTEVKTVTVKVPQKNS
Expressed in µM, but write only the number.

Here is how some molecules turned out for IC50.
1. CSC(=O)C#CC(C)(C)N(C)CCOCc1ccccc1 | 3.1
2. CSC(=O)C#CC(C)(C)N(C)C [DIMATE, reference compound] | 72

Consider now this further molecule.
Q) Could you tell me which IC50 is on file for "CSC(=O)C#CC(C)(C)N(C)CCOCc1ccc(C)c(C)c1" ?
A) 12

====

# IC50 listing for each entry below
target: Human recombinant ALDH1A1 (Homo sapiens, UniProt P00352); assay: Enzymatic assay with human recombinant ALDH (NADH fluorescence), IC50; settings: substrate Hexanal, NAD+, 37° C.
Sequence (P00352 whole entry): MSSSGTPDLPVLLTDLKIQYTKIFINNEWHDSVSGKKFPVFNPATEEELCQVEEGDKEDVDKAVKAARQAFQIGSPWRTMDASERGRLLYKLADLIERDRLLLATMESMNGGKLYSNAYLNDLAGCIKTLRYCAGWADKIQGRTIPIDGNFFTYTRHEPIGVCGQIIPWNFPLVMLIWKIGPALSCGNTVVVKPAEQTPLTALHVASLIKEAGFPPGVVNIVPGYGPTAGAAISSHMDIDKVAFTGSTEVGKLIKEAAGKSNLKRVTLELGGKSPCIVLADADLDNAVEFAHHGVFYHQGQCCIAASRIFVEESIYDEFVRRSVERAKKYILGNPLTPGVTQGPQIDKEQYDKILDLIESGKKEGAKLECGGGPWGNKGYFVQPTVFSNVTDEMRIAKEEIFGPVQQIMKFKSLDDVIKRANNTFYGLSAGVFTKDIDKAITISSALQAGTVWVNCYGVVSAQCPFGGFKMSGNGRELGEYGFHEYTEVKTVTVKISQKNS

1. CSC(=O)C#CC(C)(C)N(C)C [DIMATE, reference compound] | 37 µM
2. CSC(=O)C#CC(C)(C)N(C)CCOCc1ccccc1 | 3.8 µM

Consider now this further compound.
Q) Could you tell me which IC50 is on file for "CSC(=O)C#CC(C)(C)N(C)CCOCc1ccc(C)c(C)c1" ?
A) 4.3 µM

====

Target: Human recombinant ALDH1A2 (Homo sapiens)
Sequence (O94788 1-518): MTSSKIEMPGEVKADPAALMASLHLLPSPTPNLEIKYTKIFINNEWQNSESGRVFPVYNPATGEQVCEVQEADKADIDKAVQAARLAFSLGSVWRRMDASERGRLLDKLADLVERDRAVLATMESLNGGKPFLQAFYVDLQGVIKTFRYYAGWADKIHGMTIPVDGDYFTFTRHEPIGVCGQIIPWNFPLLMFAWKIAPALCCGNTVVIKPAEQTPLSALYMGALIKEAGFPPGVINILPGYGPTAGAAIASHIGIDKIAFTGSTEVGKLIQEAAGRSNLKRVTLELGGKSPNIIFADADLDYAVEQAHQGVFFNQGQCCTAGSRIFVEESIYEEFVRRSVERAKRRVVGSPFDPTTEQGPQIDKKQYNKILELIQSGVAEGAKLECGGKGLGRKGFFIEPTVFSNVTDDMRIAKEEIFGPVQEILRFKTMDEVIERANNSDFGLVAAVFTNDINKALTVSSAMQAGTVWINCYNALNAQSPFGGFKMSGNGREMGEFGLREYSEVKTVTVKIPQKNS
Test: Enzymatic assay with human recombinant ALDH (NADH fluorescence), IC50
Conditions: substrate Hexanal, NAD+, 37° C.
Description: Human recombinant ALDH1A1, ALDH1 A2, ALDH1A3, ALDH2 (Creative BioMart, NY, USA) were prepared at 1 mg/mL. The enzymatic reactions were performed using saturating concentrations of substrate. […] Time-dependent inhibition assays were performed for 0-2-5-10-15-20-30-45-60 min at 37° C. in 1 mL-quartz cuvette. The formation of NADH was monitored, reading samples at excitation wavelength=340 nm/emission wavelength=460 nm (fluorescence) for at least 600 sec using Cary Eclipse Varian fluorimeter. […]
# pIC50 listing for each entry below
Lab note: report pIC50 as minus log10 of the concentration in molar units, number only.

1) CSC(=O)C#CC(C)(C)N(C)CCOCc1ccc(C)c(C)c1 [Example 5] | 5.89
2) CSC(=O)C#CC(C)(C)N(C)C [DIMATE, reference compound] | 4.74

Q) Could you tell me which pIC50 is on file for CSC(=O)C#CC(C)(C)N(C)CCOCc1ccccc1 [Example 3] ?
A) 6.25
